# credit: patent US7829584B2

Record: IC50 reported on Human α-thrombin (Homo sapiens).
reported.property: IC50

> print(dat)
                                   compound      result
1  N#Cc1ccc(NCC(F)(F)c2ccc(F)cc2)[n+]([O-])c1CC(=O)NCc1cnccc1-n1cncn1 [Cpd 8]  ~0.0034 µM
2  N=C(N)NOCCNC(=O)Cc1nc(NCC(F)(F)c2ccccc2)ccc1Cl [Cpd 11]    ~0.37 µM
